Cited source for all entries: PubChem BioAssay

Recorded measurements of z-score, one per entry
assay: S. cerevisiae RM11-1a growth modifiers, primary screen, strain RM11-1a, OD600, basal, 24 h (AID 1177); conditions: OD600, 24 h, higher = more signal, called active from +8 up or from −8 down;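 note: cultures grown under basal conditions with no added stressor; test concentration not given here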
Response field accepts a number only; no unit should be typed.

For orientation, consider the following solved cases.
C=CC1c2cc(O)c(OC)cc2CCN1Cc1ccc([N+](=O)[O-])o1 (stereo not given) : 1.11
Cc1ccc(S[C@]2(C(=O)NC(C)C)CC(=O)N(C(C)C)[C@@H]2c2ccc(CO)cc2I)cc1 : -0.471
[N-]=[N+]=Nc1ccccc1[C@@H]1OC(c2ccc(OCCCO)cc2)=N[C@]1(Cc1ccccc1)C(=O)NCc1ccccc1 : 0.265
COc1cccc(/C=C(\C#N)C(=O)Nc2c(C)n(C)n(-c3ccccc3)c2=O)c1 : -0.6

Attention now turns to another entry.
Ask: Given C=C/C=C/[C@@H]1C(=C)CN([C@@H](Cc2ccccc2)C(=O)OC)[C@H]1[C@@H](O)Cc1ccccc1 , state its recorded z-score.
Result: 0.774

----------
assay: binders of probe aFGF10 on microarray, primary screen, stem cell growth factor project, biochemical, small-molecule microarray, fluorescence 635/667 (AID 1071); settings: higher = more signal;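 note: score merges 667 nm spot intensity and signal to noise from triplicate slides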
Recorded measurements of composite z-score, one per entry
Response field accepts a number only; no unit should be typed.

For orientation, consider the following solved cases.
COCCOC(=O)N1C(=O)[C@@]2(c3cc(C#CC4(O)CCCCCC4)ccc31)[C@H](C(=O)N1CCN(c3ncccn3)CC1)[C@H]1C(=O)O[C@H](c3ccccc3)[C@H](c3ccccc3)N1[C@@H]2c1ccccc1OCCO : 0.452
COc1ccc([Si](C)(C)[C@@H]2[C@@H](CC(=O)N3Cc4ccccc4C[C@H]3CO)O[C@]3(C(=O)N(c4ccccc4)c4ccccc43)[C@H]2C)cc1 : 0.934

Attention now turns to another entry.
Ask: Given C=CC1c2cc(O)c(OC)cc2CCN1Cc1ccc([N+](=O)[O-])o1 (stereo not drawn) , state its recorded composite z-score.
Result: 0.673

----------
Recorded measurements of composite z-score, one per entry
assay: anti-His antibody binders, primary screen, artefact control for SMM control protein annotation, biochemical, small-molecule microarray, 635 nm fluorescence (AID 1128); details: anti-His Alexa647 antibody binding, higher = more signal;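 note: score merges feature fluorescence with signal-to-noise for each printed compound spot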
Response field accepts a number only; no unit should be typed.

Nc1cc(Br)ccc1C(=O)O : 1.28

Ask: Given C=C(CCCC)C(=O)CC[C@@H](OC(=O)c1cccnc1)c1ccc(OCCO)cc1 , state its recorded composite z-score.
Result: 0.0583

Ask: How about this compound: CCOC(=O)C1=C[C@@H](C(C)(C)C)N(S(=O)(=O)c2ccc(C)cc2)[C@H]1c1ccccc1
Result: 0.761

Ask: How about this compound: COc1ccc(C(=O)Nc2cccc(CN3C(=O)[C@@]4(O[C@@H](CC(=O)N(CCO)Cc5ccccc5)[C@H]([Si](C)(C)c5ccc(OC)cc5)[C@H]4C)c4ccccc43)c2)cc1
Result: 0.696

----------
molecular target: Streptavidin (Streptomyces avidinii) (UniProt P22629); experiment: streptavidin binders on small-molecule microarray, primary screen, artefact control for SMM compound annotation, biophysical, 635/667 nm fluorescence (AID 1147); settings: streptavidin binding, higher = more signal;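 note: signal reflects streptavidin binding to arrayed compounds as a control protein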
Sequence (P22629 whole entry, looked up): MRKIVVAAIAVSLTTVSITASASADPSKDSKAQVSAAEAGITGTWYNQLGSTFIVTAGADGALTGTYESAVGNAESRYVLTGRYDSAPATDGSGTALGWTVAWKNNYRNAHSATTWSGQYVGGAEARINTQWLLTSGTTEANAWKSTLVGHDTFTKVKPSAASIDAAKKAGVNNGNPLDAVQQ
Recorded measurements of composite z-score, one per entry
Response field accepts a number only; no unit should be typed.

C=CCN1C(=O)[C@]2(O[C@H](CCO)[C@@H]([Si](C)(C)c3ccc(OC)cc3)[C@@H]2C)c2cc(NC(=O)c3ccc(OC)cc3)ccc21 : 0.535
CCOC(=O)C[C@H]1[C@H](OC(=O)c2ccc(-c3ccccc3)cc2)[C@@H](NC(=O)CC(C)C)c2cc(OCCCO)ccc2N1C(=O)c1ccccc1 : 0.216
COCC(=C=CC[C@H](O)c1cccc(OCCO)c1)C[C@H](O)COCc1ccccc1 : -0.599
Cc1ccccc1C(O)C1C=CC2C(=O)NC(=O)C2N1Nc1ccc(Cl)cc1Cl (configuration not stated) : 0.878
C=CCC(OC(C)=O)[C@@H]1[C@@H](N(Cc2ccc(-c3ccccc3)cc2)C(=O)c2ccc(C)cc2)c2cc(OCCCO)ccc2N1C(=O)Cc1ccc2ccccc2c1 (some centres not stated) : 0.129

Ask: Given COc1ccc([Si](C)(C)[C@H]2[C@H](CC(=O)N3CCC[C@H]3CO)O[C@@]3(C(=O)N(Cc4ccc(N5CCC5=O)cc4)c4ccccc43)[C@@H]2C)cc1 , state its recorded composite z-score.
Result: 0.39

Ask: How about this compound: CN1C(=O)C2C=CC(C(O)c3cc(C(F)(F)F)cc(C(F)(F)F)c3)N(NC(=O)OC(C)(C)C)C2C1=O (configuration not stated)
Result: 1.6

----------
molecular target: Follistatin (Homo sapiens) (UniProt P19883); test: follistatin binders on small-molecule microarrays, primary screen, biochemical, small-molecule microarray, 635/667 nm fluorescence (AID 1132); conditions: FST binding, 635 nm fluorescence, higher = more signal
Sequence (P19883 whole entry, looked up): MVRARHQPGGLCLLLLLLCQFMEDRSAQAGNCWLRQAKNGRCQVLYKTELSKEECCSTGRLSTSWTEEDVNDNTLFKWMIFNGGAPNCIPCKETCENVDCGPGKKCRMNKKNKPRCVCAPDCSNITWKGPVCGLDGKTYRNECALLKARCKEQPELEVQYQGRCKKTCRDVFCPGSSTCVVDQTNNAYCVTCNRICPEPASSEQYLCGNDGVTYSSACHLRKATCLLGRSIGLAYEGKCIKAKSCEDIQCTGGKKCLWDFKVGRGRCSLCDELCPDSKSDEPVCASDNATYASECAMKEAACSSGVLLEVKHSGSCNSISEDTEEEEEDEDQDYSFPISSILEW
# binarize composite z-score: threshold 1 inclusive, high side Condition met, low side Condition not met

O=c1cccc(-c2ccco2)o1 : Condition met
COC(=O)[C@@]1(Cc2ccc(OC)cc2)[C@H]2c3cc(C(=O)N4CCCC4)n(Cc4cc(C)n(C)n4)c3C[C@H]2CN1C(=O)c1ccccc1 : Condition not met
CCCCNC(=O)c1ccc(C#C[Si](C(C)C)(C(C)C)C(C)C)c(OC(C)=O)c1 : Condition met
COc1ccc([Si](C)(C)[C@@H]2[C@@H](CC(=O)N3Cc4ccccc4C[C@H]3CO)O[C@]3(C(=O)N(Cc4ccc(N5CCC5=O)cc4)c4ccccc43)[C@H]2C)cc1 : Condition not met
COc1ccc([Si](C)(C)[C@H]2[C@H](CCO)O[C@@]3(C(=O)N(Cc4ccccc4)c4ccc(N5C(=O)c6ccccc6Oc6ccccc65)cc43)[C@@H]2C)cc1 : Condition not met
NC(=O)NCC#Cc1ccc2c(c1)[C@]1(C(=O)N2)[C@H](C(=O)N2CCN(c3ncccn3)CC2)[C@H]2C(=O)O[C@H](c3ccccc3)[C@H](c3ccccc3)N2[C@@H]1c1ccc(OCCO)cc1 : Condition met

Ask: Given the entry Cc1ccc(N2C(=O)c3ccccc3[C@](C)(C(=O)NCc3ccccc3)[C@@H]2c2ccc(CO)cc2)nc1 , answer whether its composite z-score meets or surpasses 1.
Result: Condition met

----------
experiment: Plasmodium falciparum growth inhibition, primary screen, strain 3D7, DAPI fluorescence, 100 nL (AID 1184);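 note: parasites grown inside human red blood cells in medium with human serum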; conditions: P. falciparum 3D7 growth, 3 d, higher = more signal
MEASURED_ATTRIBUTE: z-score
Response field accepts a number only; no unit should be typed.

For orientation, consider the following solved cases.
COC(=O)[C@@]1(Cc2ccc(F)cc2)[C@H]2c3cc(C(=O)N(C)C)n(Cc4c(CO)[nH]cc(C)c4=O)c3C[C@H]2CN1C(=O)c1ccccc1 : -1.81
CC(C)C(=C=CC[C@H](O)c1cccc(OCCO)c1)CCO : 0.585

Ask: Given C=C(C)C1CCC(C(O)C2C=CC3C(=O)N(C)C(=O)C3N2Nc2cc(OC)c(OC)c(OC)c2)CC1 (configuration not stated) , state its recorded z-score.
Result: -0.593

Ask: How about this molecule: COC(=O)[C@@]1(Cc2ccc(F)cc2)[C@H]2c3cc(C(=O)N4CCCC4)n(C)c3C[C@H]2CN1C(=O)c1ccccc1
Result: -0.37

Ask: How about this molecule: CC(C)C[C@@H]1NC(=O)[C@@H]2C[C@H](C(=O)NCCCCCC[N+](C)(C)C)[C@H](c3cccc(OCCO)c3)N2C1=O
Result: 0.169

Ask: How about this molecule: CN(C)CCCCCCNC(=O)[C@@H]1C[C@@H]2C(=O)N[C@@H](CCCCN)C(=O)N2[C@@H]1c1ccc(O)cc1
Result: -1.02

Ask: How about this molecule: O=C1O[C@H](c2ccccc2)[C@H](c2ccccc2)N2[C@H]1[C@@H](C(=O)N1CCCCCCC1)[C@]1(C(=O)Nc3ccc(C#CC4(O)CCCCCC4)cc31)[C@H]2c1ccccc1OCCO
Result: -1.88

----------
test: binders of probe aHhip on microarray, primary screen, stem cell growth factor project, biochemical, small-molecule microarray, fluorescence 635/667 (AID 1087); settings: higher = more signal;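 note: score merges spot fluorescence at 667nm with spot signal to noise ratio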
Recorded measurements of composite z-score, one per entry
Response field accepts a number only; no unit should be typed.

COc1ccc(CCNC(=O)[C@@]2(Cc3ccccc3I)c3ccccc3C(=O)N(Cc3ccccc3Cl)[C@H]2c2ccc(CO)cc2)cc1 : 0.674
CC(C)OC(=O)CC(=O)CC(O)c1ccc([N+](=O)[O-])cc1 (stereo not drawn) : -0.123
C=CCNC(=O)[C@@H]1[C@H]2C(=O)O[C@H](c3ccccc3)[C@H](c3ccccc3)N2[C@H](c2ccc(OCCO)cc2)[C@@]12C(=O)N(C(=O)OCCOC)c1ccc(C#CCCO)cc12 : -0.164
CCCCNC(=O)c1ccc(C#C[Si](C(C)C)(C(C)C)C(C)C)c(OC(C)=O)c1 : 0.0722
CCOC(=O)C1=C[C@@H](C(C)(C)C)N(S(=O)(=O)c2ccc(C)cc2)[C@H]1c1ccc(C)cc1 : 0.245
C=CCNC(=O)[C@H]1[C@@H]2C(=O)O[C@@H](c3ccccc3)[C@@H](c3ccccc3)N2[C@@H](c2ccc(O)cc2)[C@]12C(=O)N(C(=O)OCCOC)c1ccc(C#CCC(C(=O)OC)C(=O)OC)cc12 : -0.162

Ask: Given C=C(COC)/C(=C/C[C@@H](OC(=O)c1ccncc1)c1ccccc1OCCO)c1cc(C(=O)OC)ccc1OC , state its recorded composite z-score.
Result: -0.0645

Ask: How about this compound: CCC(CC)C(O)C1C=CC2C(=O)N(c3ccccc3)C(=O)C2N1Nc1ccc([N+](=O)[O-])cc1 (stereo not drawn)
Result: 0.327
